Molecular target: cMBD2 MBD WT (Gallus gallus (chicken), UniProt Q5EFL0 2-71)
Assay: SPR
pKd: −log10 of the molar value.
Readout Type: pKd

{"Binder": "Inverted (dsDNA, 5-methyl-C at position 5 of both strands) DNA 1: GGACCGACTC DNA 2: GAGTCGGTCC", "Readout Type": "pKd", "Reported Value": 5.64}
{"Binder": "Thy104Gua (dsDNA, 5-methyl-C at position 5 of both strands) DNA 1: GGAGCGGCTC DNA 2: GAGCCGCTCC", "Readout Type": "pKd", "Reported Value": 5.66}
{"Binder": "Gua107Thy (dsDNA, 5-methyl-C at position 5 of both strands) DNA 1: GGATCGTCTC DNA 2: GAGACGATCC", "Readout Type": "pKd", "Reported Value": 4.54}
{"Binder": "rho-globin mCpG WT 10 bp (dsDNA, 5-methyl-C at position 5 of both strands (mC105, mC115)) DNA 1: GGATCGGCTC DNA 2: GAGCCGATCC", "Readout Type": "pKd", "Reported Value": 5.68}

src = paper PMC3159451
